system-under-test: eEF2K (Homo sapiens, UniProt O00418)
Construct: in the immortalized epithelial breast cell lines, MCF10A; host or cells: MCF10A immortalized breast epithelial cells
assay-remarks: EF2K cell-based assay (P-EF2 AlphaLISA, 2-deoxyglucose stimulated MCF10A cells)
condition-info: 2.5 mM 2-deoxyglucose 4 h, phosphorylation of EF2 at Thr 56, pIC50 = -log IC50 (M), read-out: eEF2K_C_PThr56 pIC50 (converted)
Recorded IC50 by entry
Report only the number, with the unit M understood.

O=C1CN2CCN(CC2)Cc2cccc(c2)Nc2cc(ccn2)-c2ccc(nc2)NCCCN1 [Compound 67]; 3.98e-06
O=C1CN2CCN(CC2)Cc2cccc(c2)Nc2cc(ccn2)-c2ccc(nc2)N2CCCC2CCN1 (single isomer, unassigned) [Compound 142]; 1.58e-06
O=C1CN2CCN(CC2)Cc2cccc(c2)Nc2cc(ccn2)-c2cnc(nc2)N2CC(O)CC2CCN1 (stereo not drawn) [Compound 55]; 7.76e-07
CC1c2cccc(c2)Nc2cc(ccn2)-c2cnc(nc2)NCCCNC(=O)C2(CC2)N2CCN1CC2 (single isomer, unassigned) [Compound 22]; 3.63e-07
CCCN1CCNC(=O)CN2CCN(CC2)Cc2cccc(c2)Nc2cc(ccn2)-c2ccc(nc2)C1 [Compound 147]; 1.05e-06

Exercise: Name the reported IC50 value associated with the molecule CC1c2cccc(c2F)Nc2cc(ccn2)-c2cnc(nc2)NCCCNC(=O)C2(CC2)N2CCN1CC2 (single isomer, unassigned) [Compound 11]
Key: 2.88e-07

Exercise: Name the reported IC50 value associated with the molecule O=C1CN2CCC(CC2)Nc2cccc(c2)Nc2cc(ccn2)-c2cnc(nc2)NCCCN1 [Compound 106]
Key: 2.88e-05

---

Recorded IC50 by entry
system-under-test: EF2K (Homo sapiens, UniProt O00418)
Construct: host or cells: LN-229 glioblastoma cell lysate
assay-remarks: Biochemical EF2K lysate-based kinase assay (AlphaLISA p-eEF2 Thr56)
condition-info: LN-229 cell lysates, 10 mM ATP, pH 6.6; pIC50 = -log IC50 (M); read-out: eEF2K_C_alphalisa pIC50 (converted)
Report only the number, with the unit M understood.

O=C1CN2CCN(CC2)Cc2cccc(c2)Nc2cc(ccn2)-c2ccc(nc2)CN(CC2CC2)CCN1 [Compound 146]; 3.89e-08

Lab note: next compound to report on.
Exercise: Name the reported IC50 value associated with the compound CN1CCCN(C)c2ncc(cn2)-c2ccnc(c2)Nc2cccc(c2)CN2CCN(CC2)CC1=O [Compound 38]
Key: 8.51e-08

---

Recorded IC50 by entry
system-under-test: EF2K (Homo sapiens)
Construct: host or cells: LN-229 glioblastoma cell lysate
assay-remarks: Biochemical EF2K lysate-based kinase assay (AlphaLISA p-eEF2 Thr56)
condition-info: LN-229 cell lysates, 10 mM ATP, pH 6.6; pIC50 = -log IC50 (M); read-out: eEF2K_C_alphalisa pIC50 (converted)
Report only the number, with the unit M understood.

O=C1CN2CCN(Cc3cccc(c3)Nc3cc(ccn3)-c3cnc(nc3)N3CCCC3CCN1)C(CO)C2 (stereo not shown) [Compound 44]; 2.45e-08
O=C1CN2CCN(CC2)Cc2cccc(c2)Nc2cc(ccn2)-c2cnc(cn2)NCCCN1; 2.75e-07

Lab note: next compound to report on.
Exercise: Name the reported IC50 value associated with the compound O=C1NCCC2CC(O)CN2c2ncc(cn2)-c2ccnc(c2)Nc2cccc(c2)CN2CCN(CC2)C12CC2 (stereo not shown) [Compound 57]
Key: 1.02e-08

---

system-under-test: EF2K (Homo sapiens, UniProt O00418)
Construct: host or cells: LN-229 glioblastoma cell lysate
Sequence (O00418 1-725): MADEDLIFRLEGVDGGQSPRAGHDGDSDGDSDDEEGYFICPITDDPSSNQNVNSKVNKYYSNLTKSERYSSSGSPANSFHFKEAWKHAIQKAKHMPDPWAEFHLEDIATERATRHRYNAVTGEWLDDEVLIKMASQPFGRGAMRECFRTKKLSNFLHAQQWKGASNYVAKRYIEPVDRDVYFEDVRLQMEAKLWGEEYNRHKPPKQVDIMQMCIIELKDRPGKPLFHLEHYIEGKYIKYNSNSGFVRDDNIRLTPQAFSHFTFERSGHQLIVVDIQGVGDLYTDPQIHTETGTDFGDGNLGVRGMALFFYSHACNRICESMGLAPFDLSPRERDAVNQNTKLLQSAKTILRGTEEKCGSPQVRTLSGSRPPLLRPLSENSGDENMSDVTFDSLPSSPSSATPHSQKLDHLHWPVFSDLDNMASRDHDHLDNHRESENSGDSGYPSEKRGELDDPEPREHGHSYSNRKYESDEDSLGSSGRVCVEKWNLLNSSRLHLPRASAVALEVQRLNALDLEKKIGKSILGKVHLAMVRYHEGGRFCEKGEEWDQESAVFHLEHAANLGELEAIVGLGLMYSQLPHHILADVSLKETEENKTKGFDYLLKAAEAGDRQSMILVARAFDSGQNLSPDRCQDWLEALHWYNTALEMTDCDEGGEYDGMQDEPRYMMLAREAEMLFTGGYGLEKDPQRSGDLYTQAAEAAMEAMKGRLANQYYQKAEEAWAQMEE
assay-remarks: Biochemical EF2K lysate-based kinase assay (AlphaLISA p-eEF2 Thr56)
condition-info: LN-229 cell lysates, 10 mM ATP, pH 6.6; pIC50 = -log IC50 (M); read-out: eEF2K_C_alphalisa pIC50 (converted)
Recorded IC50 by entry
Report only the number, with the unit M understood.

Worked cases, IC50 given:
O=C1NCCC2CC(O)CN2c2ncc(cn2)-c2ccnc(c2)Nc2cccc(c2)OC2CCN(CC2)C12CC2 (stereo not shown); 1.82e-09
O=C1CN2CCC(CC2)Cc2cccc(c2)Nc2cc(ccn2)-c2ccc(nc2)NCCCN1; 3.8e-06
[N-]=[N+]=N[C@H]1C[C@H]2CCNC(=O)C3(CC3)N3CCN(CC3)Cc3cccc(c3)Nc3cc(ccn3)-c3cnc(nc3)N2C1; 8.71e-09
O=C1CN2CCN(CC2)Cc2cccc(c2)Nc2cc(ccn2)-c2cnc(nc2)N2CC(F)CC2CCN1 (stereo not shown); 1e-08
CC1CN2CCN1Cc1cccc(c1)Nc1cc(ccn1)-c1cnc(nc1)N1CC(O)CC1CCNC(=O)C2 (stereo not shown) [Compound 62]; 5.5e-09
O=C1CN2CCN(CC2)Cc2cccc(c2)Nc2cc(ccn2)-c2ccc(nc2)N2CCCC2CCN1 (single isomer, unassigned) [Compound 142]; 3.55e-08

Lab note: next molecule to report on.
Exercise: Name the reported IC50 value associated with the molecule N#CC1CC2CCNC(=O)C3(CC3)N3CCN(CC3)Cc3cccc(c3)Nc3cc(ccn3)-c3cnc(nc3)N2C1 (stereo not shown)
Key: 9.77e-08

---

Recorded IC50 by entry
system-under-test: EF2K (Homo sapiens)
Construct: host or cells: LN-229 glioblastoma cell lysate
assay-remarks: Biochemical EF2K lysate-based kinase assay (AlphaLISA p-eEF2 Thr56)
condition-info: LN-229 cell lysates, 10 mM ATP, pH 6.6; pIC50 = -log IC50 (M); read-out: eEF2K_C_alphalisa pIC50 (converted)
Report only the number, with the unit M understood.

Worked cases, IC50 given:
CC1c2cccc(c2F)Nc2cc(ccn2)-c2cnc(nc2)N2CC(O)CC2CCNC(=O)C2(CC2)N2CCN1CC2 (stereo not shown) [Compound 52]; 5.37e-09
O=C1CN2CCN(CC2)Cc2cccc(c2)Nc2cc(ccn2)-c2ccc(nc2)N2CCCC2CCN1 (single isomer, unassigned) [Compound 143]; 1.38e-05
CC1CN2CCN1Cc1cccc(c1)Nc1cc(ccn1)-c1cnc(nc1)NCCCNC(=O)C2 (stereo not shown) [Compound 40]; 1.62e-07
O=C1CN2CCN(CC2)Cc2cccc(c2)Nc2cc(ccn2)-c2cnc(nc2)N2CC(O)CC2CCN1 (stereo not shown) [Compound 54]; 1.1e-08
CC1c2cccc(c2)Nc2cc(ccn2)-c2cnc(nc2)N2CC(O)CC2CCNC(=O)C2(CC2)N2CCN1CC2 (single isomer, unassigned) [Compound 65]; 5.62e-09

Lab note: next molecule to report on.
Exercise: Quick check: IC50 on EF2K (Homo sapiens), item N#CC1CC2CCNC(=O)CN3CCN(CC3)Cc3cccc(c3)Nc3cc(ccn3)-c3cnc(nc3)N2C1 (stereo not shown) [Compound 78] ?
Key: 3.72e-08

---

system-under-test: eEF2K (Homo sapiens)
Construct: in the immortalized epithelial breast cell lines, MCF10A; host or cells: MCF10A immortalized breast epithelial cells
assay-remarks: EF2K cell-based assay (P-EF2 AlphaLISA, 2-deoxyglucose stimulated MCF10A cells)
condition-info: 2.5 mM 2-deoxyglucose 4 h, phosphorylation of EF2 at Thr 56, pIC50 = -log IC50 (M), read-out: eEF2K_C_PThr56 pIC50 (converted)
recorded-metric: IC50 (M)
Report only the number, with the unit M understood.

O=C1NCCC2CC(O)CN2c2ncc(cn2)-c2ccnc(c2)Nc2cccc(c2)CN2CCN(CC2)C12CC2 (stereo not drawn) [Compound 57]; 3.09e-07
NC1CC2CCNC(=O)C3(CC3)N3CCN(CC3)Cc3cccc(c3)Nc3cc(ccn3)-c3cnc(nc3)N2C1 (stereo not drawn); 1.1e-06
O=C1CC2CCNC(=O)CN3CCN(CC3)Cc3cccc(c3)Nc3cc(ccn3)-c3cnc(nc3)N2C1 (stereo not drawn); 4.57e-07

Exercise: Name the reported IC50 value associated with the compound CC1CN2CCN1Cc1cccc(c1)Nc1cc(ccn1)-c1cnc(nc1)N1CC(O)CC1CCNC(=O)C2 (stereo not drawn) [Compound 59]
Key: 8.51e-07

Exercise: Name the reported IC50 value associated with the compound "CC1(C)c2cccc(c2)Nc2cc(ccn2)-c2cnc(nc2)NCCCNC(=O)CN2CCN1CC2"
Key: 1.51e-06

Value source: patent US20170022201A1
